# reported self-splicing fitness (ln); entries follow
assay: self-splicing fitness, log relative to wild type (ln ratio); higher = more splicing; Tetrahymena group I intron in knt gene, E. coli kanamycin selection, DiMSum; sequences stand for … in CUCUCU…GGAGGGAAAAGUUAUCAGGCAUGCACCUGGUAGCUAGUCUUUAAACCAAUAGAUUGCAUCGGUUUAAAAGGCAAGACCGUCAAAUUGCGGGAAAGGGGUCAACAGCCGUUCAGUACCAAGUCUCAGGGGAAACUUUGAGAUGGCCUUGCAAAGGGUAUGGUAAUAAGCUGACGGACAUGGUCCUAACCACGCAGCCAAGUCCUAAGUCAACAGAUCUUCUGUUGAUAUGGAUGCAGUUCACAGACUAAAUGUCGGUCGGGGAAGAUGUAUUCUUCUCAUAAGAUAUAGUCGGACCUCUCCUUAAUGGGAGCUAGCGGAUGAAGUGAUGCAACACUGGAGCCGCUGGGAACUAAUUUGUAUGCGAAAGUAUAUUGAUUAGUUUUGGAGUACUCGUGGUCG; settings: 30 °C;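 note: selection with 25 µg/mL kanamycin versus none on LB agar overnight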
Lab note: jot down the number only; don't add units.

Some entries whose results are on file:
| chain | self-splicing fitness (ln) |
| --- | --- |
| GAUAAGCAAUAUUACGGGCU | -1.95 |
| GUUUAGCAAUAUUACGAACA | -2.02 |
| GCGGAGCAAUAUUACGAUGC | -1.81 |
| CGUGAGCAAUAUUACGGUAG | -1.84 |
| GGAUAGCAAUAUUACGCAGA | -2.53 |
| CGGUAGCAAUAUUACGUGGU | -3.17 |

The record that follows has no self-splicing fitness (ln) shown yet.
Asked: // query self-splicing fitness (ln) value for entry UGUGAGCAAUAUUACGUGUU
Given back: -3.8

----------
test: self-splicing fitness, log relative to wild type (ln ratio); higher = more splicing; Tetrahymena group I intron in knt gene, E. coli kanamycin selection, DiMSum; sequences stand for … in CUCUCU…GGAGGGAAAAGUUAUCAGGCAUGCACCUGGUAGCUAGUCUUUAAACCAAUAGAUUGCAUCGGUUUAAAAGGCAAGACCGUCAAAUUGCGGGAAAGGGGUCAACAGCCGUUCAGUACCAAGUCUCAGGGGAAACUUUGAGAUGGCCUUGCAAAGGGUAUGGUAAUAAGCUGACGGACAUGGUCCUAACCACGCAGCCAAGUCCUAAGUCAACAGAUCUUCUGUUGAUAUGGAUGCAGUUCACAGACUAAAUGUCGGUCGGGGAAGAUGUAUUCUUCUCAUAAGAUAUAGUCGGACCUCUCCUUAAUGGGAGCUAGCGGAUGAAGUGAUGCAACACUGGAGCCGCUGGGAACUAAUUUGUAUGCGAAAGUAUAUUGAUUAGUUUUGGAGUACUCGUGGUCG; conditions: 37 °C
measured-quantity: self-splicing fitness (ln)
The response must contain the number and no unit.

Solved entries:
| chain | result-value |
| --- | --- |
| CUCAAGCAAUAUUACGAUCU | -2.59 |
| CGCCAGCAAUAUUACGUACU | -2.02 |
| GUACAGCAAUAUUACGUGAC | -0.577 |
| AAGUAGCAAUAUUACGGCCC | -1.15 |
| ACCUAGCAAUAUUACGGCGG | -1.6 |
| AUAAAGCAAUAUUACGCAGC | -1.04 |
| GGCUAGCAAUAUUACGGCAA | -0.682 |
| UCCAAGCAAUAUUACGUAUG | -2.36 |
| UUUCAGCAAUAUUACGGUUU | -0.244 |
| AUCUAGCAAUAUUACGCAGA | -1.82 |

Asked: Tell me the measured self-splicing fitness (ln) of UUCGAGCAAUAUUACGGUAA , please.
Given back: -1.55

Asked: I would be grateful if you could share the reported self-splicing fitness (ln) for GAAGAGCAAUAUUACGCCUA .
Given back: -1.3

Asked: What value of measured self-splicing fitness (ln) is listed for CCCUAGCAAUAUUACGACCG ?
Given back: -2.17

Asked: // returns reported self-splicing fitness (ln) for input ACCUAGCAAUAUUACGUCAG
Given back: -1.85

----------
# Lookup of reported self-splicing fitness (ln) keyed by entry
assay: self-splicing fitness, log relative to wild type (ln ratio); higher = more splicing; Tetrahymena group I intron in knt gene, E. coli kanamycin selection, DiMSum; sequences stand for … in CUCUCU…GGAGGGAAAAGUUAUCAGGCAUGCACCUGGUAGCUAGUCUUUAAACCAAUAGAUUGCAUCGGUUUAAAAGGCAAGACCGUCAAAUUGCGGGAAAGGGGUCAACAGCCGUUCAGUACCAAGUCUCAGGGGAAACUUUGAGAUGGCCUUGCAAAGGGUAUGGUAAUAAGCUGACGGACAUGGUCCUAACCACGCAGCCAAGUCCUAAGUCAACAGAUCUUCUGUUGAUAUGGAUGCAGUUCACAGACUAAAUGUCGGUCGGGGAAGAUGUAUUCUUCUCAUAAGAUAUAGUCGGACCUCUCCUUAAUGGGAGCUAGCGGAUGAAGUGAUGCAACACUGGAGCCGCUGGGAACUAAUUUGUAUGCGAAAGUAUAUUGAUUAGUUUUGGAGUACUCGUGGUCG; conditions: 37 °C
Just the number, please.

Below, 2 sequences whose answers are already recorded.
| chain | measured-quantity | result-value |
| --- | --- | --- |
| CCCGAGCAAUAUUACGGUAC | self-splicing fitness (ln) | -2.85 |
| AAUAAGCAAUAUUACGCACG | self-splicing fitness (ln) | -0.851 |

Asked: Suppose we examine the sequence UGUUAGCAAUAUUACGCUUU ; what self-splicing fitness (ln) value has been reported?
Given back: -1.32

Asked: Dear colleague, I am looking for the recorded self-splicing fitness (ln) of the following sequence: AGUUAGCAAUAUUACGCGCG
Given back: -0.151

----------
experiment: self-splicing fitness, log relative to wild type (ln ratio); higher = more splicing; Tetrahymena group I intron in knt gene, E. coli kanamycin selection, DiMSum; sequences stand for … in CUCUCU…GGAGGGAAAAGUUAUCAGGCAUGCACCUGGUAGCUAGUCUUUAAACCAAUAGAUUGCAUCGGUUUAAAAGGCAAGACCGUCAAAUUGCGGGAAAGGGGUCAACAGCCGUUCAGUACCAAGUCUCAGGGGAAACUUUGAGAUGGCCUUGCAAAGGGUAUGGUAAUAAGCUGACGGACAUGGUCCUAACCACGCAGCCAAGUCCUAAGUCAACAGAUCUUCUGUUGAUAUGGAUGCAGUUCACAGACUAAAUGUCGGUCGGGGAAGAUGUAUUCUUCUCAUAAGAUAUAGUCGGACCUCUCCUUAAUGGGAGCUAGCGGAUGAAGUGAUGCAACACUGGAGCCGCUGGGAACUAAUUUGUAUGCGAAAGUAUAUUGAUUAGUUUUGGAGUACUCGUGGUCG; conditions: 37 °C
measured-quantity: self-splicing fitness (ln)
Returns: the value as a bare number; no unit string appended.

Worked cases, self-splicing fitness (ln) given:
| chain | result-value |
| --- | --- |
| AAAAAGCAAUAUUACGCGUC | -1.72 |
| ACCAAGCAAUAUUACGCCGG | -0.125 |
| GGAAAGCAAUAUUACGCUAG | -0.857 |

Asked: Param item = AAAUAGCAAUAUUACGCUAA ; retrieve measured self-splicing fitness (ln).
Given back: -1.52

Asked: Any idea what self-splicing fitness (ln) was measured for CGAUAGCAAUAUUACGAGCC ?
Given back: -2.61

Asked: Would you mind telling me what self-splicing fitness (ln) value was observed for UUACAGCAAUAUUACGGUCC ?
Given back: -1.03

Asked: Any idea what its self-splicing fitness (ln) is? The sequence is CCGGAGCAAUAUUACGUUGG
Given back: -2.47

Asked: Which value of self-splicing fitness (ln) has been reported for UUGCAGCAAUAUUACGAUAG in the records?
Given back: 0.225

Asked: Name the recorded self-splicing fitness (ln) for UACAAGCAAUAUUACGCAGC .
Given back: -2.63

----------
assay: self-splicing fitness, log relative to wild type (ln ratio); higher = more splicing; Tetrahymena group I intron in knt gene, E. coli kanamycin selection, DiMSum; sequences stand for … in CUCUCU…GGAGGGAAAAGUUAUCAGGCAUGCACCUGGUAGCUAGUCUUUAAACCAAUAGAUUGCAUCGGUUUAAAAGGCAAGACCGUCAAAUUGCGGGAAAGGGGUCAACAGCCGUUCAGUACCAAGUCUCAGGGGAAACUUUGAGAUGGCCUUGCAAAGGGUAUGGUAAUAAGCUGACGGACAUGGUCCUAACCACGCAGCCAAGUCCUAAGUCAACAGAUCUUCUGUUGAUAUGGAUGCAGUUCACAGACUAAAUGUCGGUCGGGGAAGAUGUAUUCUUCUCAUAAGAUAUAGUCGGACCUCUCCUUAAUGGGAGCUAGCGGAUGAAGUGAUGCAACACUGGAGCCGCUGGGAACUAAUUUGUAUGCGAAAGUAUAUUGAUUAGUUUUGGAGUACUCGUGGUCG; settings: 37 °C
Use -1 as the dividing line for self-splicing fitness (ln), with the line itself on the T side and lower values as F.

Asked: Check the entry CCCGAGCAAUAUUACGAUAU : does self-splicing fitness (ln) equal or exceed -1?
Given back: F

Asked: Answer whether self-splicing fitness (ln) of CUUUAGCAAUAUUACGACUG is greater than or equal to -1.
Given back: T

Asked: Could you tell me if the measured self-splicing fitness (ln) of GGGGAGCAAUAUUACGUACA reaches -1 or more?
Given back: F

Asked: Confirm if self-splicing fitness (ln) reported for the sequence UAAGAGCAAUAUUACGUGAG is -1 or above.
Given back: T

Asked: Decide: self-splicing fitness (ln) of AACGAGCAAUAUUACGCGGC >= -1?
Given back: F

Asked: Dear colleague, could you confirm whether GCGGAGCAAUAUUACGUUUG has self-splicing fitness (ln) at or above -1?
Given back: F
